Tested On: Human recombinant PDE10A2 (Homo sapiens (Human))
Sequence (Q9Y233 267-1055): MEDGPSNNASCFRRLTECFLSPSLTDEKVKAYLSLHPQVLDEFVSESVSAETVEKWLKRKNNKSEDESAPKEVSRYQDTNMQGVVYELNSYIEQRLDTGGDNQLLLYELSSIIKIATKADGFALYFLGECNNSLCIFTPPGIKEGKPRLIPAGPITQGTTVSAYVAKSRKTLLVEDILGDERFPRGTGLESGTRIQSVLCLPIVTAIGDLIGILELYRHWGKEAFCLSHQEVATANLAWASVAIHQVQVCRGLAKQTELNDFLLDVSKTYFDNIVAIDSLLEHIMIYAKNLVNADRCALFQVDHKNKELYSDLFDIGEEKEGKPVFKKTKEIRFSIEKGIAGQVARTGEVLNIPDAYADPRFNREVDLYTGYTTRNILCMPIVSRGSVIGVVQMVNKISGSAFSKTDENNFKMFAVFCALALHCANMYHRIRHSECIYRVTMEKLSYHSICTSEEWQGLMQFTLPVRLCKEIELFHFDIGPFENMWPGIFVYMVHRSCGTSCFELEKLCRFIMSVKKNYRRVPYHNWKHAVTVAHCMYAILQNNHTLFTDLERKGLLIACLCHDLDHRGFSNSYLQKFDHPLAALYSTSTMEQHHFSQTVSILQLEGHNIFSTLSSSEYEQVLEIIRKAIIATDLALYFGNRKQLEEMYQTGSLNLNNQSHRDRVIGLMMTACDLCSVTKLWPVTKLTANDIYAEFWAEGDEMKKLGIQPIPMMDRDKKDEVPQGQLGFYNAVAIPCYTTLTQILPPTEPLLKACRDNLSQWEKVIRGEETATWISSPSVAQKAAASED
Assay Comment: In vitro hPDE10a (human recombinant PDE10A2, scintillation proximity assay)
Run Conditions: human recombinant PDE10A2, 60 nM cAMP, 60 min at room temperature; read-out: hPDE10a2 IC50
Counter-ions that a name gives are not always drawn.
We label by threshold. Values of IC50 strictly beneath 10 nM are MET. Values of 10 nM and up are NOT MET.

INSERT INTO results (compound, class) VALUES
  ('CC(=O)NS(=O)(=O)c1ccc(-c2cnc(N3CCOCC3)c3nc(COc4ccc5ccccc5n4)cn23)cc1 [Cpd 88]', 'MET'),
  ('O=C(O)CNC(=O)c1ccc(-c2cnc(N3CCOCC3)c3nc(/C=C/c4ccc5ccccc5n4)cn23)cc1 [Cpd 50]', 'NOT MET'),
  ('O=C1NC(=O)C(c2ccc(-c3cnc(N4CCOCC4)c4nc(/C=C/c5ccc6ccccc6n5)cn34)cc2)O1 (centres unmarked) [Cpd 48]', 'NOT MET'),
  ('CN1CCN(c2ccc(-c3cnc(N4CCOCC4)c4nc(COc5ccc6ccccc6n5)cn34)cn2)CC1 [Cpd 130]', 'NOT MET'),
  ('c1ccc2nc(OCc3cn4c(-c5ccc(Sc6cnn[nH]6)nc5)cnc(N5CCOCC5)c4n3)ccc2c1 [Cpd 92]', 'MET'),
  ('Cn1nc(-c2ccc(-c3cnc(N4CCOCC4)c4nc(/C=C/c5ccc6ccccc6n5)cn34)cc2)[nH]c1=O [Cpd 47]', 'NOT MET'),
  ('O=C(O)Cc1ccc(-c2cnc(N3CCOCC3)c3nc(COc4ccc5ccccc5n4)cn23)cn1 [Cpd 101]', 'NOT MET'),
  ('c1cnc(OCc2cn3c(-c4ccc(N5CCNCC5)nc4)cnc(N4CCOCC4)c3n2)nc1 [Cpd 116, trifluoroacetic acid salt]', 'NOT MET');
